From: paper PMC4274170

assay: in vitro; details: male, Sprague-Dawley, rat, pH 7.4
parameter.measured: Km

* c1ccc2c(c1)cc1ccc3cccc4ccc2c1c34 [B[a]P, benzo[a]pyrene] | 18 µM

----------
assay: In vitro metabolism; conditions: female, B6129SF1/J, mouse, pH 7.4
parameter.measured: Km (µM)

* c1ccc2c(c1)cc1ccc3cccc4c5ccccc5c2c1c34 [DBC, dibenzo[def,p]chrysene] | 6.63

----------
experiment: In vitro metabolism; details: male, Sprague-Dawley, rat, pH 7.4
parameter.measured: Km

• c1ccc2c(c1)cc1ccc3cccc4c5ccccc5c2c1c34 [DBC, dibenzo[def,p]chrysene] = 7.28 µM

----------
assay: In vitro metabolism; assay type: in vitro ADME, mouse; conditions: female, B6129SF1/J, mouse, liver microsomes of pregnant (GD17) mice, pH 7.4
parameter.measured: Km (µM)

- c1ccc2c(c1)cc1ccc3cccc4c5ccccc5c2c1c34 [DBC, dibenzo[def,p]chrysene]: 3.28

----------
assay: in vitro; conditions: female, B6129SF1/J, mouse, pH 7.4
parameter.measured: Km (µM)

• c1ccc2c(c1)cc1ccc3cccc4ccc2c1c34 [B[a]P, benzo[a]pyrene] = 4.97
